- assayed-target: human V1a receptor (Homo sapiens, UniProt P37288)
- Construct: expressed in transfected cells; host or cells: HEK293 cells, transiently transfected; cell membranes
- Sequence (P37288 whole entry): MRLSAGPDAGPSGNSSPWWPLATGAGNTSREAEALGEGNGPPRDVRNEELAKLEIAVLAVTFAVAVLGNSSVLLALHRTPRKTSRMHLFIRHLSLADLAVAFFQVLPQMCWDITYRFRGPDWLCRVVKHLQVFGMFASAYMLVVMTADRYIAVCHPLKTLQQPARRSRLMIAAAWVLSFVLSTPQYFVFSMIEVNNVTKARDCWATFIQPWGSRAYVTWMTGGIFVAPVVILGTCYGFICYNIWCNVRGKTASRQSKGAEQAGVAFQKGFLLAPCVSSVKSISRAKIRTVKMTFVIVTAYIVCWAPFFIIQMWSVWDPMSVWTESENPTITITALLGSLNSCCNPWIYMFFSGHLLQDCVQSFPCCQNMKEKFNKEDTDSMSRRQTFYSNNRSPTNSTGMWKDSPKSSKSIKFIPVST
- procedure-summary: human V1a receptor binding studies (3H-Vasopressin, SPA beads)
- condition-notes: membranes of HEK293 cells transiently transfected with human V1a receptor, Ki by Cheng-Prussoff from IC50, read-out: pKi hV1a (converted)
Labelling field: enter Condition met if recorded Ki is less than 30 nM. Enter Condition not met if it equals or exceeds that cut-off.

Known results for molecules:
O=C1N=C(N2CCC3(CC2)OCc2ccccc23)OC12CCN(CC(F)F)CC2 [Example 136] = Condition not met
CCCC1OC(N2CCC3(CC2)OCc2ccccc23)=NC1=O (stereo not drawn) [Example 1] = Condition not met
CC1(C(O)c2ccccc2)OC(N2CCC3(CC2)OCc2ccccc23)=NC1=O (stereo not drawn) [Example 90] = Condition not met
CCCCC1OC(N2CCC3(CC2)OC(=O)c2ccccc23)=NC1=O (single isomer, unassigned; enantiomer b) [Example 6] = Condition met
CCCCC1(C)OC(N2CCC3(CC2)OC(=O)c2ccccc23)=NC1=O (stereo not drawn) [Example 69] = Condition not met
CCCCC1OC(N2CCC3(CC2)OCc2ccccc23)=NC1=O (single isomer, unassigned; (+)) [Example 4] = Condition met

Identify whether the molecule CC1(Cc2ccccc2)OC(N2CCC3(CC2)OC(=O)c2ccccc23)=NC1=O (single isomer, unassigned; enantiomer b) [Example 73] records Ki below 30 nM.
Condition not met

Is Ki strictly under 30 nM for the entry CC(c1ccccc1)C1(C)OC(N2CCC3(CC2)OCc2ccccc23)=NC1=O (single isomer, unassigned; diastereomer b) [Example 110] ?
Condition met

Consider the molecule O=C1OC2(CCN(C3=NC(=O)C(C(O)c4ccc(Cl)cc4)O3)CC2)c2ccccc21 (single isomer, unassigned) [Example 51] . Is its Ki strictly less than 30 nM?
Condition not met

Decide: Ki of CC(c1ccccc1)C1(C)OC(N2CCC3(CC2)OCc2ccccc23)=NC1=O (single isomer, unassigned; diastereomer a) [Example 109] strictly below 30 nM?
Condition not met

hey, is Ki for O=C1N=C(N2CCC3(CC2)OCc2ccccc23)OC1C(O)c1ccccc1 (single isomer, unassigned) [Example 36] lower than 30 nM or not?
Condition not met

Problem: For the molecule CC1(C(O)c2ccc(Cl)cc2)OC(N2CCC3(CC2)OC(=O)c2ccccc23)=NC1=O (stereo not drawn) [Example 93] , is Ki under 30 nM?
Condition not met

Please let me know if CC(C)(C)OC(=O)N1Cc2ccccc2CC2(C1)OC(N1CCC3(CC1)OCc1ccccc13)=NC2=O (stereo not drawn) [Example 137] shows Ki below 30 nM.
Condition met

Just wondering, is Ki of CC1OC2(CCN(C3=NC(=O)C(Cc4ccccc4)O3)CC2)c2ccccc21 (stereo not drawn) [Example 22] below 30 nM?
Condition met

Is 30 nM strictly greater than the molecule's reported Ki? molecule: CCCCC1(C)OC(N2CCC3(CC2)OCc2ccccc23)=NC1=O (single isomer, unassigned; (+)) [Example 67]
Condition met

Is Ki strictly under 30 nM for the entry O=C1N=C(N2CCC3(CC2)OCc2ccccc23)OC12C[C@@H]1OCCO[C@@H]1C2 (single isomer, unassigned; diastereomer b) [Example 145] ?
Condition not met

Determine if CC(C)(C)OC(=O)N1CCC2(CC1)OC(N1CCC3(CC1)OCc1ccccc13)=NC2=O [Example 134] shows Ki strictly lower than 30 nM.
Condition not met

Identify whether the molecule O=C1N=C(N2CCC3(CC2)OCc2ccccc23)OC1C(F)c1ccc(Cl)cc1 (single isomer, unassigned) [Example 48] records Ki below 30 nM.
Condition not met

# strict comparison: is reported Ki < 30 nM? input = C=C(C)CC1(CC(=C)C)OC(N2CCC3(CC2)OCc2ccccc23)=NC1=O [Example 56]
Condition met

Input O=C1N=C(N2CCC3(CC2)OCc2ccccc23)OC12CCCOC2 (stereo not drawn) [Example 125] ; condition: Ki strictly below 30 nM. Does it hold?
Condition not met
